Where do these numbers come from? They come from the supplement of paper PMC10307832.

test system: EMC-BAC-2; assay: relative viability (nuclei count vs DMSO), 5 days (fraction); higher = more cells survive; details: first compound 0.04 µM
Please provide measured relative viability for the entries that follow.
Give a plain numeric answer without units written out.

Any idea what relative viability was measured for COc1cc(N2CCC(C(N)=O)CC2)ccc1Nc1nc(N)c(Cl)c(Nc2ccccc2S(=O)(=O)C(C)C)n1 [HG-5-88-01] + N=C(N)NC(=N)NCCc1ccccc1 [Phenformin] (partner 250 µM) ?
0.541

Now consider Clc1ccc(Nc2nnc(Cc3ccncc3)c3ccccc23)cc1 [Vatalanib] + C[C@@H](Oc1cc(-c2cnn(C3CCNCC3)c2)cnc1N)c1c(Cl)ccc(F)c1Cl [Crizotinib] (partner 1 µM) .
0.703

Now consider C[C@@H]1CN(CC(=O)Nc2ccc3c(c2)Cc2cccc(-c4cc(=O)cc(N5CCOCC5)o4)c2S3)C[C@H](C)O1 + CS(=O)(=O)N1CCN(Cc2cc3nc(-c4cccc5[nH]ncc45)nc(N4CCOCC4)c3s2)CC1 [Pictilisib] (partner 1 µM) .
0.559

Now consider C[C@@H]1CN(CC(=O)Nc2ccc3c(c2)Cc2cccc(-c4cc(=O)cc(N5CCOCC5)o4)c2S3)C[C@H](C)O1 + CC(C)C[C@H](NC(=O)[C@H](Cc1ccccc1)NC(=O)c1cnccn1)B(O)O [Bortezomib] (partner 0.002 µM) .
1.07

Now consider Clc1ccc(Nc2nnc(Cc3ccncc3)c3ccccc23)cc1 [Vatalanib] + O=C(CCCCCCC(=O)Nc1ccccc1)NO [Vorinostat] (partner 1 µM) .
0.448

Now consider COc1cc(N2CCC(C(N)=O)CC2)ccc1Nc1nc(N)c(Cl)c(Nc2ccccc2S(=O)(=O)C(C)C)n1 [HG-5-88-01] + CS(=O)(=O)CCNCc1ccc(-c2ccc3ncnc(Nc4ccc(OCc5cccc(F)c5)c(Cl)c4)c3c2)o1 [Lapatinib] (partner 2 µM) .
0.928

Now consider C[C@@H]1CN(CC(=O)Nc2ccc3c(c2)Cc2cccc(-c4cc(=O)cc(N5CCOCC5)o4)c2S3)C[C@H](C)O1 + C[C@]1(O)C[C@@H](c2nc(-c3ccc4ccc(-c5ccccc5)nc4c3)c3c(N)nccn32)C1 [Linsitinib] (partner 1 µM) .
0.805

Now consider Clc1ccc(Nc2nnc(Cc3ccncc3)c3ccccc23)cc1 [Vatalanib] + N=C(N)NC(=N)NCCc1ccccc1 [Phenformin] (partner 250 µM) .
0.511

Now consider C[C@@H]1CN(CC(=O)Nc2ccc3c(c2)Cc2cccc(-c4cc(=O)cc(N5CCOCC5)o4)c2S3)C[C@H](C)O1 + CC(=O)c1c(C)c2cnc(Nc3ccc(N4CCNCC4)cn3)nc2n(C2CCCC2)c1=O [Palbociclib] (partner 0.5 µM) .
0.502
